Origin of values: patent US20200199207A1

For each entry below, report its EC50 value.
# study_system: T1, nAra h 3 (peanut)
# T1 construct: Bought natural allergen; also called naturally extracted Ara h 3
# procedure_summary: ELISA, antigen-coated plate
Note: unit mg/L is implicit; provide only the numeric part.

[in] Request the reported EC50 associated with h12G10 (antibody, human IgG1, V domains shown, Recombinant human IgG; also called hMAb 12G10) VH: EVQLLESGGRLLRPGGSLSLSCVASGFYFGDFGMSWVRQVPGKGLEWVSGIDWSGRSTGYVDSMKGRLTISRDNDKSSLYLQMNDLRGEDTAVYYCARVGRLCSGDSCDSMGAFDLWGQGTMVTVSS VL: DIQLTQSPSTLSASIGDSVTITCRASQNIDNWLAWYQQKPGKAPRLLIYKASSLGSGVSSKFRGSGFGTEFTLTITSLQPDDFATYYCQKSNGYSRTFGQGTKVDIK
[out] 0.0337

[in] Name the reported EC50 value associated with the binder h7G6 (antibody, V domains shown, Recombinant human IgG; also called hMAb 7G6) VH: QVQLVESGGGVVQPGRSLRLSCAASGIAFNDYTMHWVRRSPDKGLEWVAAISYGGTNKYYADSVKGRFTISRDSSKNTLFLQMDSLRVEDTAVYYCARDSGYRSLLHWGQGTLVTVSS VL: EIVLTQSPLSLPVTPGEPASISCRSSQSLVHRNGYNYLDWYLQKPGQSPQLLIYMASKRASGVPDRFSGSGSGTEFTLKISRVEAEDVGIYYCMQALQTWTFGQGTKVEVN
[out] 0.0013

[in] Name the recorded EC50 for h37D5 (antibody, V domains shown, Recombinant human IgG; also called hMAb 37D5) VH: EEQLVESGGRLLRPGESLSLSCAAVGFNFGDFGMAWVRQPPGKGLEWVAGINWSGHSTGFVDSMKGRLTISRDSAKSSLFLQMNSLRGEDTAVYYCARVGRLCSGDICDSMGAFDLWGQGTMVTVSS VL: DIQMTQSPSTLSASIGDRVTITCRASQTIDNWLAWYQQRPGKAPKLLIYQASSLQSGVSSRFRGSGSGTEFTLTITSLQPDDFATYYCQKSNGYSRTFGQGTKVEIK .
[out] 0.0652
